Source of measurements: the RNAGym collection of RNA variant scans (doi:10.1126/science.aae0568)

B1: tRNA (parent)
chain: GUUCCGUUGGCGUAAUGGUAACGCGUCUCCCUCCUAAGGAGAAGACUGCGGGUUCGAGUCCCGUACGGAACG

Variants of: B1
experimental_details: yeast fitness relative to wild type (ratio to wild type); higher = fitter; tRNA-Arg(CCU), competitive growth, 37 C, YPD
Fewer inactive variants are shown than the library holds.
Attribute: yeast fitness
Keep the answer to the number alone.

Problem: If you can, please state the reported yeast fitness value of U8A A20U A21U G25A A43U .
Solution: 0.584

Problem: If you can, please state the reported yeast fitness value of G12A C46U G51A C66U .
Solution: 0.615

Problem: If you can, please state the reported yeast fitness value of G38C A57G .
Solution: 0.617
